- Tested on: recombinant NL4-3 virus (nef section replaced with Renilla luciferase gene) in MT-2 cells
- protocol: HIV cell culture assay (antiviral activity, luciferase readout in infected MT-2 cells)
- Assay type: cell-based
- applied.conditions: Renilla, NL43
assay.metric: EC50 (nM)

compound=CO[C@H](C)COc1ccc2c(=O)n(-c3ccc(Cl)c4c(NS(C)(=O)=O)nn(C)c34)c([C@H](Cc3cc(F)cc(F)c3)NC(=O)Cn3nc(C(F)F)c4c3C(F)(F)[C@@H]3C[C@H]43)nc2n1 assay_metric=EC50 recorded_value=0.019
compound="Cn1nc(NS(C)(=O)=O)c2c(Cl)ccc(-n3c([C@H](Cc4cc(F)cc(F)c4)NC(=O)Cn4nc(C(F)F)c5c4C(F)(F)[C@@H]4C[C@H]54)nc4nc(OCc5ccccc5)ccc4c3=O)c21 (atropisomer, axis not shown; (P))" assay_metric=EC50 recorded_value=0.1
